The measured values listed here are drawn from ChEMBL document CHEMBL1124584.

- System: MCF7
- ASSAY INFO: Effective dose for [3H]- estradiol against proliferation of MCF-7 cells
- Format: functional, cell-based
- RUN CONDITIONS: Homo sapiens
ENDPOINT: EC50 (nM)
// return numeric value only (unit: nM, not printed)

Inquiry: Reported EC50, compound `N#CC(=C(c1ccc(O)cc1)c1ccc(O)cc1)c1ccccc1` : ____
Reply text: 0.059

Inquiry: Which value of EC50 has been reported for `CC/C(=C(\c1ccccc1)c1ccc(OCCN(C)C)cc1)c1ccccc1` in the records?
Reply text: 0.11

Inquiry: Can you look up the measured EC50 of `Cc1ccc(/C(=C(/C#N)c2ccc(O)cc2)c2ccc(O)cc2)cc1` for me?
Reply text: 0.105

Inquiry: // returns reported EC50 for input `CC/C(=C(/c1ccccc1)c1ccc(OCCN(C)C)cc1)c1ccccc1`
Reply text: 11
